system: Escherichia coli TOP10; test: shrunken log2 fold change of peptide-encoding DNA abundance (4.5 h post-induction vs induction); higher = less antimicrobial activity (less host growth inhibition); settings: time post-induction: 4.5 h; library: site-saturation at positions 5, 18, 19, 20;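 note: peptides expressed intracellularly from a pBAD plasmid library in pooled LB shake-flask culture, induced with 0.3% L-arabinose, DNA abundance read by NGS, three biological replicates, DESeq2 with apeglm shrinkage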
shrunken log2 fold change vs -0.04: at or above is condition met, below is condition not met.

| record_sequence | category_label |
| --- | --- |
| RRIRTRPPRLPRPRPRPIAGPRP | condition not met |
| RRIRVRPPRLPRPRPRPAFIPRP | condition met |
| RRIRSRPPRLPRPRPRPTHSPRP | condition met |
| RRIRMRPPRLPRPRPRPRADPRP | condition met |
| RRIRIRPPRLPRPRPRPGTFPRP | condition not met |
| RRIRRRPPRLPRPRPRPNFFPRP | condition met |
| RRIRDRPPRLPRPRPRPQVTPRP | condition met |
| RRIRGRPPRLPRPRPRPPSHPRP | condition met |
| RRIRVRPPRLPRPRPRPGNIPRP | condition not met |
| RRIRERPPRLPRPRPRPGKCPRP | condition not met |
| RRIRNRPPRLPRPRPRPATVPRP | condition not met |
| RRIRKRPPRLPRPRPRPTASPRP | condition met |
| RRIRNRPPRLPRPRPRPPDAPRP | condition met |
| RRIRTRPPRLPRPRPRPTIFPRP | condition not met |
| RRIRLRPPRLPRPRPRPYGYPRP | condition met |
| RRIRPRPPRLPRPRPRPESFPRP | condition not met |
| RRIRKRPPRLPRPRPRPWTIPRP | condition met |
| RRIRVRPPRLPRPRPRPPYTPRP | condition not met |
| RRIRWRPPRLPRPRPRPLALPRP | condition met |
| RRIRPRPPRLPRPRPRPKRWPRP | condition met |
| RRIRMRPPRLPRPRPRPEVLPRP | condition not met |
| RRIRIRPPRLPRPRPRPCGMPRP | condition met |
| RRIRWRPPRLPRPRPRPGNYPRP | condition met |
| RRIRCRPPRLPRPRPRPAGIPRP | condition not met |
| RRIRKRPPRLPRPRPRPMQCPRP | condition met |
| RRIRLRPPRLPRPRPRPSCHPRP | condition not met |
| RRIRARPPRLPRPRPRPRNLPRP | condition met |
| RRIRGRPPRLPRPRPRPSKSPRP | condition not met |
| RRIRNRPPRLPRPRPRPNDKPRP | condition not met |
| RRIRCRPPRLPRPRPRPSMFPRP | condition not met |
| RRIRCRPPRLPRPRPRPRRWPRP | condition met |
| RRIRLRPPRLPRPRPRPYRNPRP | condition not met |
| RRIRIRPPRLPRPRPRPARRPRP | condition met |
| RRIRHRPPRLPRPRPRPAEVPRP | condition met |
| RRIRFRPPRLPRPRPRPNQDPRP | condition not met |
| RRIRGRPPRLPRPRPRPRGVPRP | condition met |
| RRIRDRPPRLPRPRPRPEWLPRP | condition met |
| RRIRLRPPRLPRPRPRPIWTPRP | condition met |
| RRIRYRPPRLPRPRPRPLDVPRP | condition met |
| RRIRCRPPRLPRPRPRPLMQPRP | condition met |
| RRIRPRPPRLPRPRPRPHHDPRP | condition not met |
| RRIRPRPPRLPRPRPRPCWNPRP | condition not met |
| RRIRTRPPRLPRPRPRPHMNPRP | condition not met |
| RRIRNRPPRLPRPRPRPMPCPRP | condition met |
| RRIRLRPPRLPRPRPRPLIKPRP | condition not met |
| RRIRRRPPRLPRPRPRPKRDPRP | condition met |
| RRIRCRPPRLPRPRPRPSQGPRP | condition not met |
| RRIRNRPPRLPRPRPRPAWEPRP | condition met |
| RRIRKRPPRLPRPRPRPNRQPRP | condition met |
| RRIRVRPPRLPRPRPRPQNHPRP | condition not met |
| RRIRCRPPRLPRPRPRPRQTPRP | condition met |
| RRIRPRPPRLPRPRPRPWRHPRP | condition not met |
| RRIRPRPPRLPRPRPRPRRLPRP | condition met |
| RRIRWRPPRLPRPRPRPSPPPRP | condition met |
| RRIRCRPPRLPRPRPRPWDHPRP | condition not met |
| RRIRTRPPRLPRPRPRPPHLPRP | condition met |
| RRIRHRPPRLPRPRPRPNFQPRP | condition not met |
| RRIRNRPPRLPRPRPRPWFKPRP | condition not met |
| RRIRKRPPRLPRPRPRPPIVPRP | condition not met |
| RRIRLRPPRLPRPRPRPAWAPRP | condition met |
| RRIRVRPPRLPRPRPRPVFFPRP | condition met |
| RRIRYRPPRLPRPRPRPLETPRP | condition met |
| RRIRSRPPRLPRPRPRPEPMPRP | condition met |
